TESTED_TARGET: Brassica napus diacylglycerol acyltransferase 1 (BnaDGAT1, isoform BnaC.DGAT1.a) (Brassica napus, UniProt Q9M4V2)
Construct: gene DGAT1-4; BnaDGAT1_1-113, cytoplasmic N-terminal domain (residues 1-113), N-terminal 10 x His-tag
Sequence (Q9M4V2 1-113): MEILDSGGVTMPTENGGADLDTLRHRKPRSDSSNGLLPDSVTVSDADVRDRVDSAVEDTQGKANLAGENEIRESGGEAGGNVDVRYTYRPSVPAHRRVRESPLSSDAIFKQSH
METHOD_DESCRIPTION: ITC ([…] stoichiometry); supported by thermal shift (about […] degree Tm increase) and CD
Assay type: binding
READOUT_KIND: Kd (µM)

| SMILES_NOTATION | READOUT_KIND | UNIT_INFO | QUANTITATIVE_READOUT |
| --- | --- | --- | --- |
| CCCCCCCC/C=C\CCCCCCCC(=O)SCCNC(=O)CCNC(=O)[C@H](O)C(C)(C)COP(=O)(O)OP(=O)(O)OC[C@H]1O[C@@H](n2cnc3c(N)ncnc32)[C@H](O)[C@@H]1OP(=O)(O)O | Kd | µM | 10 |
